System under test: NAD-dependent protein deacetylase sirtuin-1 (Homo sapiens, UniProt Q96EB6, F414A)
Assay remarks: Inhibition of human SIRT1 F414A mutant expressed in Escherichia coli BL21(DE3) using AMC-labeled Arg-His-Lys-Lys(ac) as substrate assessed as inhibition of deacetylation of peptide after 45 mins by fluorescence assay
Quantity name: IC50
# output: numeric value plus its unit

Form field: IC50 recorded for c1ccc(-c2nn3c(-c4ccco4)nnc3s2)nc1 with NAD-dependent protein deacetylase sirtuin-1 (Homo sapiens, UniProt Q96EB6, F414A) (enter value)
44 µM

----------
System under test: NAD-dependent protein deacetylase sirtuin-1 (Homo sapiens, UniProt Q96EB6)
Assay remarks: Inhibition of hexa-His-tagged recombinant human SIRT1 expressed in Escherichia coli BL21(DE3) using AMC-labeled Arg-His-Lys-Lys(ac) as substrate assessed as inhibition of deacetylation of peptide after 45 mins by Lineweaver-Burke plot method
Quantity name: pKi
Please express pKi as -log10 of the molar concentration.

Query: pKi; subject: c1ccc(-c2nn3c(-c4ccco4)nnc3s2)nc1
6.22

----------
System under test: NAD-dependent protein deacetylase sirtuin-1 (Homo sapiens)
Assay remarks: Inhibition of hexa-His-tagged recombinant human SIRT1 expressed in Escherichia coli BL21(DE3) using AMC-labeled Arg-His-Lys-Lys(ac) as substrate assessed as inhibition of deacetylation of peptide after 45 mins by fluorescence assay
Quantity name: pIC50
Please express pIC50 as -log10 of the molar concentration.

Please review the entries below; each comes with its answer.
- Structure notation: "c1ccc(CCc2nn3c(-c4ccco4)nnc3s2)cc1"
  pIC50: 4.32
- Structure notation: "c1coc(-c2nnc3sc(-c4ccc5c(c4)OCO5)nn23)c1"
  pIC50: 4.34
- Structure notation: "COc1cccc(OCc2nn3c(-c4ccco4)nnc3s2)c1"
  pIC50: 4.32

Next item in the queue.
Query: pIC50; subject: c1ccc(OCc2nn3c(-c4ccco4)nnc3s2)cc1
4.21

----------
System under test: NAD-dependent protein deacetylase sirtuin-1 (Homo sapiens, UniProt Q96EB6)
Sequence (Q96EB6 whole entry): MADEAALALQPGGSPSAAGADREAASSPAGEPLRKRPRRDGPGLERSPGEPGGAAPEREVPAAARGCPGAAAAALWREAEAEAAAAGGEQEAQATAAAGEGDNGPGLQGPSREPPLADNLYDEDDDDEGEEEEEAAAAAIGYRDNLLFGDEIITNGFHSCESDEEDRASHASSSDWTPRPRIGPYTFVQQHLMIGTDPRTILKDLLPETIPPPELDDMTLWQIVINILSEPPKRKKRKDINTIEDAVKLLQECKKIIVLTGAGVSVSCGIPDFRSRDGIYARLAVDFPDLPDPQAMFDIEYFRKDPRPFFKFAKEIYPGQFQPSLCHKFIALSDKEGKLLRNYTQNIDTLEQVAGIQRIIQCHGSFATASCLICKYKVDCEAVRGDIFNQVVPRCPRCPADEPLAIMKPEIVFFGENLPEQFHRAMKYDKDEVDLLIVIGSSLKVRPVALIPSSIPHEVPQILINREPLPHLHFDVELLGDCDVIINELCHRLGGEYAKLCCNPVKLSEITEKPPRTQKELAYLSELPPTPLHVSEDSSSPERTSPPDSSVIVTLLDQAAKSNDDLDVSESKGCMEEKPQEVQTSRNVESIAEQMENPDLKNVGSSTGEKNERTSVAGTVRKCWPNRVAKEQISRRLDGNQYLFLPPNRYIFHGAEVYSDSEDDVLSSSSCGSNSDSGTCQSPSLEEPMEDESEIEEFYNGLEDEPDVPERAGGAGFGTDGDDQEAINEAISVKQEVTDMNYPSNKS
Assay remarks: Inhibition of hexa-His-tagged recombinant human SIRT1 expressed in Escherichia coli BL21(DE3) using AMC-labeled Arg-His-Lys-Lys(ac) as substrate assessed as inhibition of deacetylation of peptide after 45 mins by fluorescence assay
Quantity name: pIC50
Please express pIC50 as -log10 of the molar concentration.

Query: pIC50; subject: c1ccc(-c2nn3c(-c4ccco4)nnc3s2)cc1
4.56

And what about the molecule COc1cccc(-c2nn3c(-c4ccco4)nnc3s2)c1 ?
4.69
